Source of measurements: ChEMBL document CHEMBL5523706

- Test system: NHDF
- assay: Cytotoxicity against human HDF cells assessed as reduction in cell viability at 50 uM incubated for 24 hrs by MTT assay
- Type: toxicity, cell-based
outcomeMeasure: Activity

Cn1cc(NC(=O)c2cc(NC(=O)c3ccc(/C=C/c4ccccc4)cc3)cn2C)cc1C(=O)NCCCN1CCOCC1 :: Non-Toxic
CN(C)CCCNC(=O)c1cc(NC(=O)c2cc(NC(=O)c3cc(NC(=O)c4nccn4C)cn3C)cn2C)cn1C :: Toxic
CN(C)CCCNC(=O)c1cc(NC(=O)c2cc(NC(=O)c3ccc(/C=C/c4ccccc4)cc3)cn2C)cn1C :: Toxic
Cc1ccc(CSCCC(=O)Nc2cc(C(=O)Nc3cc(C(=O)NCCCN4CCOCC4)n(C)c3)n(C)c2)cc1 :: Non-Toxic
